Known MIC of a selection of compounds
- Tested on: Pasteurella hemolytica 41D
- assayNotes: broth-dilution microtiter MIC test
- Assay type: cell-based
- reportedConditions: Pasteurella, 41D
Kindly provide the numeric value in µg/mL only, without the unit symbol.

[[record]]
compound = "CCC1OC(=O)CC(O)C(C)C(OC2OC(C)C(O)C(N(C)C)C2OC(C)=O)C(CC=O)CC(C)C(=O)C=CC(C)=CC1COC1OC(C)C(OC(C)=O)C(O)C1OC (centres unmarked)"
targetsystem = "Pasteurella hemolytica 41D"
valuemeasured = 50

[[record]]
compound = "CCC1OC(=O)CC(O)C(C)C(OC2OC(C)C(O)C(N(C)C)C2OC(C)=O)C(CC=O)CC(C)C(=O)C=CC(C)=CC1COC1OC(C)C(OC(=O)CC(C)C)C(O)C1OC (centres unmarked)"
targetsystem = "Pasteurella hemolytica 41D"
valuemeasured = 25


Please find the next compound below.
## Input Which MIC is listed for CCC1OC(=O)CC(O)C(C)C(OC2OC(C)C(O)C(N(C)C)C2O)C(CC=O)CC(C)C(=O)C=CC(C)=CC1COC1OC(C)C2OC(C)(C)OC2C1OC (centres unmarked) ?
## Output 50

###

- Tested on: Staphylococcus aureus 19C
- assayNotes: broth-dilution microtiter MIC test
- Format: cell-based
- reportedConditions: Staphylococcus aureus, 19C
Listed below: MIC values for each entry.
Give just the numeric value; µg/mL need not be written.

[[record]]
compound = "CCC1OC(=O)CC(O)C(C)C(OC2OC(C)C(O)C(N(C)C)C2OC(C)=O)C(CC=O)CC(C)C(=O)C=CC(C)=CC1COC1OC(C)C(OC(=O)CC(C)C)C(O)C1OC (stereo not shown)"
unitofmeasurement = "µg/mL"
valuemeasured = 6.25


## Input Form: Entry = CCC1OC(=O)CC(O)C(C)C(OC2OC(C)C(OC3CC(C)(O)C(O)C(C)O3)C(N(C)C)C2OC(C)=O)C(CC=O)CC(C)C(=O)C=CC(C)=CC1COC1OC(C)C(OC(=O)Cc2ccccc2)C(O)C1OC (stereo not shown) | System = Staphylococcus aureus 19C | MIC = ____
## Output 3.12

###

- System: Pasteurella multocida 40G
- assayNotes: broth-dilution microtiter MIC test
- Format: cell-based
- reportedConditions: Pasteurella multocida, 40G; broth-dilution microtiter; read-out: MIC
measuredQuantity: MIC

[[record]]
compound = "CCC1OC(=O)CC(O)C(C)C(OC2OC(C)C(OC3CC(C)(O)C(O)C(C)O3)C(N(C)C)C2OC(C)=O)C(CC=O)CC(C)C(=O)C=CC(C)=CC1COC1OC(C)C(OC(=O)CC(C)C)C(OC(=O)CC(C)C)C1OC (stereo not drawn)"
measuredquantity = "MIC"
valuemeasured = "> 50 µg/mL"


Now consider a different compound.
## Input What value of MIC has been recorded for this entry: CCC1OC(=O)CC(O)C(C)C(OC2OC(C)C(OC3CC(C)(O)C(O)C(C)O3)C(N(C)C)C2OC(C)=O)C(CC=O)CC(C)C(=O)C=CC(C)=CC1COC1OC(C)C2OC(=O)OC2C1OC (stereo not drawn)
## Output 25 µg/mL

###

- Test system: Escherichia coli EC14
- assayNotes: standard agar-dilution MIC assay
- Type: cell-based
In this section, each of the molecules is paired with its reported MIC.

[[record]]
molecule = "CCC1OC(=O)CC(O)C(C)C(OC2OC(C)C(O)C(N(C)C)C2OC(C)=O)C(CC=O)CC(C)C(=O)C=CC(C)=CC1COC1OC(C)C(OC(=O)Cc2ccccc2)C(O)C1OC (stereo not shown) [Compound 29, 2'-O-Acetyl-4\"-O-phenylacetyl-lactenocin]"
measuredquantity = "MIC"
valuemeasured = "> 128 µg/mL"

[[record]]
molecule = "CCC1OC(=O)CC(O)C(C)C(OC2OC(C)C(OC3CC(C)(O)C(O)C(C)O3)C(N(C)C)C2OC(C)=O)C(CC=O)CC(C)C(=O)C=CC(C)=CC1COC1OC(C)C(OC(=O)Cc2ccccc2)C(OC(=O)Cc2ccccc2)C1OC (stereo not shown) [Compound 11]"
measuredquantity = "MIC"
valuemeasured = "> 128 µg/mL"

[[record]]
molecule = "CCC1OC(=O)CC(O)C(C)C(OC2OC(C)C(O)C(N(C)C)C2O)C(CC=O)CC(C)C(=O)C=CC(C)=CC1COC1OC(C)C(OC(=O)Cc2ccccc2)C(O)C1OC (stereo not shown) [Compound 30, 4\"-O-Phenylacetyl-lactenocin]"
measuredquantity = "MIC"
valuemeasured = "> 128 µg/mL"


Field: next molecule
## Input MIC lookup needed for CCC1OC(=O)CC(O)C(C)C(OC2OC(C)C(OC3CC(C)(O)C(O)C(C)O3)C(N(C)C)C2OC(C)=O)C(CC=O)CC(C)C(=O)C=CC(C)=CC1COC1OC(C)C(OC(C)=O)C(O)C1OC (stereo not shown) [Compound 1, 2',4'"-Di-O-acetyl-macrocin] , thanks.
## Output > 128 µg/mL
